read-out: Monokine induced gamma interferon (MIG), CXCL9 (gene 4283); experiment: BSK_CASM3C_MIG: BioMAP Diversity Plus: CASM3C Assay for Monokine induced gamma interferon (MIG) Biomarker Activity (AID 2283048); details: primary human coronary artery smooth muscle cells; actives raise or lower the signal;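 also: MIG protein level measured by ELISA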
Calls of active or inactive are those of the source. The calls were made as follows: active = hit-call score of the fitted dose curve at least 0.9, where 1 is the maximum; inactive = score below 0.9.
The reply should name one outcome from active, inactive

Lookup: Kindly provide the recorded test outcome for the following compound: CN1CCCC1=O
Found: inactive

Lookup: Kindly provide the recorded test outcome for the following compound: CC(=O)OC/C=C(\C)CCC=C(C)C
Found: inactive

Lookup: Kindly provide the recorded test outcome for the following compound: C[C@]12C=CC(=O)C=C1CC[C@@H]1[C@@H]2C(=O)C[C@@]2(C)[C@H]1CC[C@]2(O)C(=O)CO
Found: inactive

Lookup: Kindly provide the recorded test outcome for the following compound: COCCOCCOC
Found: inactive

Lookup: Kindly provide the recorded test outcome for the following compound: CCOC(=O)CCC(=O)OCC
Found: inactive

Lookup: Kindly provide the recorded test outcome for the following compound: COc1cc(-c2nc(NC(=O)c3cc4cc(C)cc(C)c4n3CC(=O)O)sc2CCC2CCCCC2)c(OC)cc1Cl
Found: active

Lookup: Kindly provide the recorded test outcome for the following compound: Cc1ccc(C)c(O)c1C
Found: inactive

Lookup: Kindly provide the recorded test outcome for the following compound: CCc1c(C(=O)NN2CCCCC2)nn(-c2ccc(Cl)cc2Cl)c1-c1ccc(Br)cc1
Found: inactive

Lookup: Kindly provide the recorded test outcome for the following compound: Cc1cccc([N+](=O)[O-])c1C
Found: inactive

Lookup: Kindly provide the recorded test outcome for the following compound: Cc1ccc(C(C)C)c(O)c1
Found: inactive

Lookup: Kindly provide the recorded test outcome for the following compound: CC1(C)CC(N=C=O)CC(C)(CN=C=O)C1 (stereo unspecified)
Found: inactive

Lookup: Kindly provide the recorded test outcome for the following compound: Oc1ccc2c(c1)OC[C@@H](N1CCC(O)(c3ccc(F)cc3)CC1)[C@H]2O
Found: inactive

Lookup: Kindly provide the recorded test outcome for the following compound: NCCO
Found: inactive

Lookup: Kindly provide the recorded test outcome for the following compound: Cc1ccc(C)c(C)c1
Found: inactive

Lookup: Kindly provide the recorded test outcome for the following compound: CC(C)c1ccc(C(=O)N=C(N)N)cc1S(C)(=O)=O
Found: inactive

Lookup: Kindly provide the recorded test outcome for the following compound: Nc1ccc2c(c1)C(=O)c1ccccc1C2=O
Found: inactive

Lookup: Kindly provide the recorded test outcome for the following compound: C1CCC(SSC2CCCCC2)CC1
Found: inactive

Lookup: Kindly provide the recorded test outcome for the following compound: O=C(N[C@@H](Cc1ccccc1)[C@@H](O)C(=O)N1C[C@@H](O)[C@@H](O)C1)c1cc2cc(Cl)ccc2[nH]1
Found: inactive

Lookup: Kindly provide the recorded test outcome for the following compound: CCOC(=O)C(C)(C)Oc1ccc(Cl)cc1
Found: inactive

Lookup: Kindly provide the recorded test outcome for the following compound: Cc1oc(-c2ccccc2)nc1CCOc1cccc2c1ccn2CCC(=O)O
Found: inactive

Lookup: Kindly provide the recorded test outcome for the following compound: CCNc1cccc(C)c1
Found: inactive

Lookup: Kindly provide the recorded test outcome for the following compound: CCCCCCCCCCCC(=O)OC
Found: inactive

Lookup: Kindly provide the recorded test outcome for the following compound: O=C(O)Cc1ccccc1Nc1c(Cl)cccc1Cl
Found: inactive

Lookup: Kindly provide the recorded test outcome for the following compound: CCOc1ccc2c(c1)C(C)=CC(C)(C)N2
Found: inactive

Lookup: Kindly provide the recorded test outcome for the following compound: OC[C@@H](O)[C@@H](O)[C@H](O)[C@H](O)CO
Found: inactive

Lookup: Kindly provide the recorded test outcome for the following compound: CCCCCCCCCCC
Found: inactive

---

assay: ATG_Oct_MLP_CIS: Attagene CIS-FACTORIAL HepG2 Assay for human Octamer-Binding Transcription Factor (Oct) (AID 2282993); conditions: HepG2 Attagene cis-factorial Oct reporter, mRNA; actives raise or lower the signal
Activity calls are given as the source filed them. How the source made its calls: active means hit-call score of the fitted dose curve at least 0.9, where 1 is the maximum; inactive means score below 0.9.
The reply should name one outcome from y (active), n (inactive)

Lookup: Kindly provide the recorded test outcome for the following molecule: O=c1[nH]cc(F)c(=O)[nH]1
Found: n

Lookup: Kindly provide the recorded test outcome for the following molecule: Cc1oc(-c2ccccc2)nc1CCOc1cccc2c1ccn2CCC(=O)O
Found: n

Lookup: Kindly provide the recorded test outcome for the following molecule: COc1cc(-c2nc(NC(=O)c3cc4cc(C)cc(C)c4n3CC(=O)O)sc2CCC2CCCCC2)c(OC)cc1Cl
Found: y

Lookup: Kindly provide the recorded test outcome for the following molecule: CCCCCCCCCCO
Found: y

Lookup: Kindly provide the recorded test outcome for the following molecule: NC(=O)Cn1c(=O)cc(CCN2CCN(c3nccc4sccc34)CC2)c2ccc(F)cc21
Found: n

Lookup: Kindly provide the recorded test outcome for the following molecule: Cc1ccc(C)c(O)c1C
Found: n

Lookup: Kindly provide the recorded test outcome for the following molecule: NCCO
Found: n

Lookup: Kindly provide the recorded test outcome for the following molecule: COc1cccc2c1C(=O)c1c(O)c3c(c(O)c1C2=O)C[C@@](O)(C(=O)CO)C[C@@H]3O[C@H]1C[C@H](N)[C@H](O)[C@H](C)O1
Found: y

Lookup: Kindly provide the recorded test outcome for the following molecule: O=C(N[C@@H](Cc1ccccc1)[C@@H](O)C(=O)N1C[C@@H](O)[C@@H](O)C1)c1cc2cc(Cl)ccc2[nH]1
Found: n

Lookup: Kindly provide the recorded test outcome for the following molecule: C1CCC(SSC2CCCCC2)CC1
Found: n

Lookup: Kindly provide the recorded test outcome for the following molecule: CN[C@H]1CC[C@@H](c2ccc(Cl)c(Cl)c2)c2ccc(S(N)(=O)=O)cc21
Found: n

---

assay: ATG_M_32_TRANS: Attagene TRANS-FACTORIAL HepG2 Assay for M32 Transcription Factor (Internal Marker) (AID 2282984); conditions: HepG2 Attagene TRANS M32 internal marker reporter;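 also: transcript level of a background control reporter unit measured by RT-PCR and capillary electrophoresis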
Results filed as inconclusive are left out. Calls of active or inactive are those of the source. Rule for the calls: active = hit-call score of the fitted dose curve at least 0.9, where 1 is the maximum; inconclusive = response in the unintended direction; inactive = score below 0.9.
reported.metric: outcome

Known outcome results, listed for orientation:
* CCCCCCOCCO | inactive
* COC(=O)c1ccc(O)cc1 | inactive
* CC(C)(C)c1cc(O)c(C(C)(C)C)cc1O | inactive
* CC1(C)NC(=O)NC1=O | inactive

Lookup: Consider the molecule shown here: CCCc1cc(=O)[nH]c(=S)[nH]1 What is its recorded outcome?
Found: inactive

Lookup: Consider the molecule shown here: O=[N+]([O-])C(CO)(CO)CO What is its recorded outcome?
Found: inactive

Lookup: Consider the molecule shown here: NS(=O)(=O)c1cc2c(cc1Cl)NCNS2(=O)=O What is its recorded outcome?
Found: inactive

Lookup: Consider the molecule shown here: CCOc1ccc2c(c1)C(C)=CC(C)(C)N2 What is its recorded outcome?
Found: inactive

---

read-out: UDP glucuronosyltransferase (UGT1A1), UGT1A1 (gene 54658); assay: LTEA_HepaRG_UGT1A1: Life Technologies and Expression Analysis (LTEA) Assay for UDP glucuronosyltransferase (UGT1A1) using HepaRG (AID 2283538); details: mRNA level, 48 h; actives raise or lower the signal
Activity calls are given as the source filed them. The calls were made as follows: active = hit-call score of the fitted dose curve at least 0.9, where 1 is the maximum; inactive = score below 0.9.
The reply should name one outcome from Y = active, N = inactive

Lookup: Kindly provide the recorded test outcome for the following compound: COc1ccc2c(c1)c(CC(=O)O)c(C)n2C(=O)c1ccc(Cl)cc1
Found: N

Lookup: Kindly provide the recorded test outcome for the following compound: CC(C)(C)c1cc(O)c(C(C)(C)C)cc1O
Found: Y

Lookup: Kindly provide the recorded test outcome for the following compound: CN[C@H]1CC[C@@H](c2ccc(Cl)c(Cl)c2)c2ccc(S(N)(=O)=O)cc21
Found: Y

Lookup: Kindly provide the recorded test outcome for the following compound: Cc1ccc2ncccc2c1
Found: N

Lookup: Kindly provide the recorded test outcome for the following compound: CC(=O)OC/C=C(\C)CCC=C(C)C
Found: N

Lookup: Kindly provide the recorded test outcome for the following compound: COC(=O)c1ccc(O)cc1
Found: N

Lookup: Kindly provide the recorded test outcome for the following compound: O=c1[nH]cc(F)c(=O)[nH]1
Found: N

Lookup: Kindly provide the recorded test outcome for the following compound: CCCCCC(=O)O
Found: N

Lookup: Kindly provide the recorded test outcome for the following compound: CCCCCCCCCCCC(=O)OC
Found: N

Lookup: Kindly provide the recorded test outcome for the following compound: CCCCCCCCCCCCCCCC
Found: N

Lookup: Kindly provide the recorded test outcome for the following compound: CCCCOC(=O)CCCCCCCCC(=O)OCCCC
Found: N

Lookup: Kindly provide the recorded test outcome for the following compound: CNC(=O)[C@H]1O[C@@H](n2cnc3c(NCc4cc(Cl)ccc4OCc4cc(C)no4)ncnc32)[C@H](O)[C@@H]1N
Found: N

Lookup: Kindly provide the recorded test outcome for the following compound: CC1=C(/C=C/C(C)=C/C=C/C(C)=C/CO)C(C)(C)CCC1
Found: Y

Lookup: Kindly provide the recorded test outcome for the following compound: Cc1nc(-c2ccc3c(c2)CCN(CCC2CCC(NC(=O)/C=C/c4ccc(F)cc4)CC2)CC3)no1 (configuration not stated)
Found: N

Lookup: Kindly provide the recorded test outcome for the following compound: COc1ccc(C)cc1N
Found: N

Lookup: Kindly provide the recorded test outcome for the following compound: C[C@]12C=CC(=O)C=C1CC[C@@H]1[C@@H]2C(=O)C[C@@]2(C)[C@H]1CC[C@]2(O)C(=O)CO
Found: Y

Lookup: Kindly provide the recorded test outcome for the following compound: O=C(OCCCCCOC(=O)c1ccccc1)c1ccccc1
Found: Y

Lookup: Kindly provide the recorded test outcome for the following compound: CC(=O)C(C)=CC1C(C)=CCCC1(C)C (configuration not stated)
Found: N

Lookup: Kindly provide the recorded test outcome for the following compound: CCOC(=O)CCC(=O)OCC
Found: N

Lookup: Kindly provide the recorded test outcome for the following compound: CCCCC(CC)COC(=O)CC(C(=O)OCC(CC)CCCC)S(=O)(=O)O (configuration not stated)
Found: Y

Lookup: Kindly provide the recorded test outcome for the following compound: CC1(C)CC(N=C=O)CC(C)(CN=C=O)C1 (configuration not stated)
Found: N

Lookup: Kindly provide the recorded test outcome for the following compound: NCC1(Cc2noc(=O)[nH]2)CCCCC1
Found: N

Lookup: Kindly provide the recorded test outcome for the following compound: COCCOCCOC
Found: Y

Lookup: Kindly provide the recorded test outcome for the following compound: NS(=O)(=O)c1cc2c(cc1Cl)NCNS2(=O)=O
Found: N

Lookup: Kindly provide the recorded test outcome for the following compound: CCCCCCCCCCCCCCCCCC(=O)O
Found: N

Lookup: Kindly provide the recorded test outcome for the following compound: NC(=O)Cn1c(=O)cc(CCN2CCN(c3nccc4sccc34)CC2)c2ccc(F)cc21
Found: Y

Lookup: Kindly provide the recorded test outcome for the following compound: CCNc1cccc(C)c1
Found: N
